- System: Hs578T
- Test Protocol: normalised response (% of control), CellTiter-Glo; higher = more viable cells (100 = DMSO, 0 = benzethonium chloride kill control)
- Setup Conditions: incubation time: 72 h
Record form. Attribute: normalised response. Fill in for each entry.
Report as a plain number; the unit % is understood.

Param readout= normalised response; system= Hs578T; entry= NC1(c2ccc(-c3nc4ccn5c(=O)[nH]nc5c4cc3-c3ccccc3)cc2)CCC1 [MK-2206] (1 nM) ; returns value. 96.5

Now the same for CC(C)n1nc(-c2ccc3oc(N)nc3c2)c2c(N)ncnc21 [INK128] (0.1 nM) 96.3

Now the same for CC(C)(C)Cn1c(N)nc2ccc(-c3[nH]c(C(C)(C)C)nc3-c3ccc(F)cc3)nc21 (10 nM) 106

Now the same for COc1cc2c(cc1-c1c(C)noc1C)ncc1[nH]c(=O)n([C@H](C)c3ccccn3)c12 [I-BET151] (10 nM) 99

Now the same for CCCc1cc(C)[nH]c(=O)c1CNC(=O)c1cc(-c2ccnc(N3CCN(C)CC3)c2)cc2c1cnn2C(C)C [GSK343] (1000 nM) 101

Now the same for C[C@@H]1C[C@H]2[C@@H]3CCC4=CC(=O)C=C[C@]4(C)[C@@]3(F)[C@@H](O)C[C@]2(C)[C@@]1(O)C(=O)CO [Dexamethasone] (1000 nM) 108

Now the same for C[C@@H]1C[C@H]2[C@@H]3CCC4=CC(=O)C=C[C@]4(C)[C@@]3(F)[C@@H](O)C[C@]2(C)[C@@]1(O)C(=O)CO [Dexamethasone] (10 nM) 104

Now the same for CN1CCc2c(c3ccccc3n2Cc2ccc(C(=O)NO)cc2)C1 [Tubastatin A] (1000 nM) 101

Now the same for CCc1cnn2c(NCc3ccc[n+]([O-])c3)cc(N3CCCC[C@H]3CCO)nc12 [Dinaciclib] (1 nM) 109

Now the same for O=C(O)CC[C@H]1CC[C@@](c2cc(F)ccc2F)(S(=O)(=O)c2ccc(Cl)cc2)CC1 [MK-0752] (1 nM) 104

Now the same for O=NN(CCCl)C(=O)NC1CCCCC1 [Lomustine] (1000 nM) 101

Now the same for CCc1c(C(=O)C(N)=O)c2c(OCC(=O)O)cccc2n1Cc1ccccc1 [Varespladib] (1000 nM) 102

Now the same for CCc1c(C(=O)C(N)=O)c2c(OCC(=O)O)cccc2n1Cc1ccccc1 [Varespladib] (10 nM) 104

Now the same for O=C(O)CC[C@H]1CC[C@@](c2cc(F)ccc2F)(S(=O)(=O)c2ccc(Cl)cc2)CC1 [MK-0752] (0.1 nM) 98.7

Now the same for CC/C(=C(\c1ccccc1)c1ccc(OCCN(C)C)cc1)c1ccccc1 [Tamoxifen] (1000 nM) 106

Now the same for CCc1c(C(=O)C(N)=O)c2c(OCC(=O)O)cccc2n1Cc1ccccc1 [Varespladib] (1 nM) 103

Now the same for COc1cc(Nc2ncc(F)c(Nc3ccc4c(n3)N(COP(=O)(O)O)C(=O)C(C)(C)O4)n2)cc(OC)c1OC [Fostamatinib] (0.25 nM) 99.2

Now the same for COc1cc2c(cc1-c1c(C)noc1C)ncc1[nH]c(=O)n([C@H](C)c3ccccn3)c12 [I-BET151] (1000 nM) 52.6

Now the same for COc1cc2c(cc1-c1c(C)noc1C)ncc1[nH]c(=O)n([C@H](C)c3ccccn3)c12 [I-BET151] (1 nM) 101

Now the same for CCc1cnn2c(NCc3ccc[n+]([O-])c3)cc(N3CCCC[C@H]3CCO)nc12 [Dinaciclib] (100 nM) 12.9

Now the same for Cn1nnc2c(C(N)=O)ncn2c1=O [Temozolomide] (1000 nM) 91.7

Now the same for C[C@@H]1C[C@H]2[C@@H]3CCC4=CC(=O)C=C[C@]4(C)[C@@]3(F)[C@@H](O)C[C@]2(C)[C@@]1(O)C(=O)CO [Dexamethasone] (1 nM) 107

Now the same for NC(=O)NO [Hydroxyurea] (10 nM) 101

Now the same for CN1CCN(c2nc(C3=C(c4c[nH]c5ccccc45)C(=O)NC3=O)c3ccccc3n2)CC1 [Sotrastaurin] (1000 nM) 101

Now the same for Cn1cc(C[C@@H](N)C(=O)O)c2ccccc21 [1-methyl-D-tryptophan] (5 nM) 93.2

* * *

- Test system: CAL-51
- Test Protocol: normalised response (% of control), CellTox Green; higher = less cell death (100 = DMSO, 0 = benzethonium chloride kill control)
- Setup Conditions: incubation time: 72 h
Decision: normalised response compared against 40%; not below it gives Satisfied, below it gives Not satisfied.

Check if normalised response >= 40% (inclusive). Item: CC(C)NC[C@@H](C(=O)N1CCN(c2ncnc3c2[C@H](C)C[C@H]3O)CC1)c1ccc(Cl)cc1 [GDC-0068] (100 nM) Satisfied

Now the same for Cc1cc2c(F)c(Oc3ncnn4cc(OC[C@@H](C)O)c(C)c34)ccc2[nH]1 [Brivanib] (100 nM) Satisfied

Now the same for CCCCCOC(=O)Nc1nc(=O)n([C@@H]2O[C@H](C)[C@@H](O)[C@H]2O)cc1F [Capecitabine] (10000 nM) Satisfied

Now the same for O=C(O)CC[C@H]1CC[C@@](c2cc(F)ccc2F)(S(=O)(=O)c2ccc(Cl)cc2)CC1 [MK-0752] (10 nM) Satisfied

Now the same for CN1CCc2c(c3ccccc3n2Cc2ccc(C(=O)NO)cc2)C1 [Tubastatin A] (1000 nM) Satisfied

Now the same for C[C@@H]1C[C@H]2[C@@H]3CCC4=CC(=O)C=C[C@]4(C)[C@@]3(F)[C@@H](O)C[C@]2(C)[C@@]1(O)C(=O)CO [Dexamethasone] (1000 nM) Satisfied

Now the same for CCc1c(C(=O)C(N)=O)c2c(OCC(=O)O)cccc2n1Cc1ccccc1 [Varespladib] (10000 nM) Satisfied

Now the same for CN1CCN(c2nc(C3=C(c4c[nH]c5ccccc45)C(=O)NC3=O)c3ccccc3n2)CC1 [Sotrastaurin] (1000 nM) Satisfied

Now the same for COc1cc(Nc2ncc(F)c(Nc3ccc4c(n3)N(COP(=O)(O)O)C(=O)C(C)(C)O4)n2)cc(OC)c1OC [Fostamatinib] (2500 nM) Not satisfied

Now the same for O=C(c1cc(Cc2n[nH]c(=O)c3ccccc23)ccc1F)N1CCN(C(=O)C2CC2)CC1 [Olaparib] (10000 nM) Satisfied

Now the same for Cc1c(N)nc([C@H](CC(N)=O)NC[C@H](N)C(N)=O)nc1C(=O)N[C@H](C(=O)N[C@H](C)[C@@H](O)[C@H](C)C(=O)N[C@H](C(=O)NCCc1nc(-c2nc(C(=O)NCCC[S+](C)C)cs2)cs1)[C@@H](C)O)[C@@H](OC1OC(CO)C(O)C(O)C1OC1OC(CO)C(O)C(OC(N)=O)C1O)c1cnc[nH]1 (some centres not stated) [Bleomycin] (100 nM) Not satisfied

Now the same for CC(C)C[C@H](NC(=O)[C@H](CCc1ccccc1)NC(=O)CN1CCOCC1)C(=O)N[C@@H](Cc1ccccc1)C(=O)N[C@@H](CC(C)C)C(=O)[C@@]1(C)CO1 [Carfilzomib] (1000 nM) Not satisfied

* * *

- System: HCC1937
- Test Protocol: normalised response (% of control), CellTiter-Glo; higher = more viable cells (100 = DMSO, 0 = benzethonium chloride kill control)
- Setup Conditions: incubation time: 72 h
Recorded Metric: normalised response (%)
Report as a plain number; the unit % is understood.

Which normalised response is listed for Cc1c(N)nc([C@H](CC(N)=O)NC[C@H](N)C(N)=O)nc1C(=O)N[C@H](C(=O)N[C@H](C)[C@@H](O)[C@H](C)C(=O)N[C@H](C(=O)NCCc1nc(-c2nc(C(=O)NCCC[S+](C)C)cs2)cs1)[C@@H](C)O)[C@@H](OC1OC(CO)C(O)C(O)C1OC1OC(CO)C(O)C(OC(N)=O)C1O)c1cnc[nH]1 (some centres not stated) [Bleomycin] (10000 nM) ? 45.8

Now the same for CCc1cnn2c(NCc3ccc[n+]([O-])c3)cc(N3CCCC[C@H]3CCO)nc12 [Dinaciclib] (1000 nM) 27.8

Now the same for COc1cc(Nc2ncc(F)c(Nc3ccc4c(n3)N(COP(=O)(O)O)C(=O)C(C)(C)O4)n2)cc(OC)c1OC [Fostamatinib] (2500 nM) 54

Now the same for Cn1nnc2c(C(N)=O)ncn2c1=O [Temozolomide] (10000 nM) 91.6

Now the same for CC(C)n1nc(-c2ccc3oc(N)nc3c2)c2c(N)ncnc21 [INK128] (1000 nM) 37

Now the same for C[C@@H]1C[C@H]2[C@@H]3CCC4=CC(=O)C=C[C@]4(C)[C@@]3(F)[C@@H](O)C[C@]2(C)[C@@]1(O)C(=O)CO [Dexamethasone] (10000 nM) 98.4

Now the same for NC(=O)NO [Hydroxyurea] (100000 nM) 95

Now the same for CC/C(=C(\c1ccccc1)c1ccc(OCCN(C)C)cc1)c1ccccc1 [Tamoxifen] (10000 nM) 51.8

Now the same for Nc1nc(Cl)nc2c1ncn2[C@@H]1O[C@H](CO)[C@@H](O)[C@@H]1F [Clofarabine] (10000 nM) 84.2

Now the same for Cn1cc(C[C@@H](N)C(=O)O)c2ccccc21 [1-methyl-D-tryptophan] (5000 nM) 99.5

Now the same for COc1cc2c(Oc3ccc(NC(=O)C4(C(=O)Nc5ccc(F)cc5)CC4)cc3F)ccnc2cc1OCCCN1CCOCC1 [Foretinib] (1000 nM) 72.5

Now the same for CC(C)C(=O)Nc1ccc([N+](=O)[O-])c(C(F)(F)F)c1 [Flutamide] (10000 nM) 92.7
